Values were extracted from patent US10144742B2.

Collected IC50 values appear next to each entry.
Molecular target: hNAMPT protein (Homo sapiens (Human), UniProt P43490)
Sequence (P43490 whole entry): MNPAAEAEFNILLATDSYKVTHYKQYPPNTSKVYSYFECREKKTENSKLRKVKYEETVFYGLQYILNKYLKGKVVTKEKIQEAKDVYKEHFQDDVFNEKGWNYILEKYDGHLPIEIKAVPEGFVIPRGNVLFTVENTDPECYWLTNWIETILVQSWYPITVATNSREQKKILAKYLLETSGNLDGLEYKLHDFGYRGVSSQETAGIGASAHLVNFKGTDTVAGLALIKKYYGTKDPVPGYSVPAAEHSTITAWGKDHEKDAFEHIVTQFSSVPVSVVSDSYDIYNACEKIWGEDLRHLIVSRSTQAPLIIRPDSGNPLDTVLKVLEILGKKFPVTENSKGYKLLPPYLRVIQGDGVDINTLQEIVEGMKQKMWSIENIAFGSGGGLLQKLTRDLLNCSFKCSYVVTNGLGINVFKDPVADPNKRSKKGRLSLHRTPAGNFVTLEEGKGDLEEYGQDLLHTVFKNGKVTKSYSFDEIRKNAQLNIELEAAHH
Assay: NAMPT enzyme assay (TR-FRET/HTRF, BodiPY ligand, anti 6His-Tb)
Type: binding
Conditions: NAMPT IC50 range class; read-out: IC50

// below: answered compounds
[[record]]
query_smiles = "COc1cccc(-c2nc3cc(C(=O)NCCc4cccnc4)ccc3nc2N2CCC(N3CCOCC3)CC2)c1"
tgt = "hNAMPT protein (Homo sapiens (Human), UniProt P43490)"
val = "< 100 nM"

[[record]]
query_smiles = "O=C(NCCc1cccnc1)c1ccc2nc(-c3ccc(F)cc3)c(-c3ccc(F)cc3)nc2c1"
tgt = "hNAMPT protein (Homo sapiens (Human), UniProt P43490)"
val = "100 to 500 nM"

[[record]]
query_smiles = "CC(C)(C)OC(=O)NCC1(O)CCN(C2CCN(c3nc4ccc(C(=O)NCCCn5ccnc5)cc4nc3-c3ccccc3)CC2)CC1"
tgt = "hNAMPT protein (Homo sapiens (Human), UniProt P43490)"
val = "< 100 nM"


Form: Entry = COc1ccccc1-c1nc2cc(C(=O)NCCCn3ccnc3)ccc2nc1-c1ccccc1 | System = hNAMPT protein (Homo sapiens (Human), UniProt P43490) | IC50 = ____ 100 to 500 nM

Lab note: need IC50 for Cn1cnc2c1CN(C(=O)c1ccc3nc(-c4ccc(F)cc4)c(-c4ccc(F)cc4)nc3c1)CC2 on hNAMPT protein (Homo sapiens (Human), UniProt P43490), anyone have it? 2000 to 10000 nM

---

Documented inhibition at 1 µM across a set of compounds
Target: UniProtKB P43490
Experiment: NAMPT enzyme assay (TR-FRET/HTRF, BodiPY ligand, anti 6His-Tb)
Format: binding
Conditions: compound concentration 1 μM; read-out: Percent Inhibition
Answer format: numeric, % implied, no suffix.

Reference set, count: 3
[[record]]
compound = "CN1CC=C(c2nc3ccc(C(=O)NCCCn4ccnc4)cc3nc2-c2ccccc2)CC1 [Compound I-165]"
val = 78

[[record]]
compound = "CCOc1cccc(-c2nc3ccc(C(=O)NCCCn4ccnc4)cc3nc2-c2ccccc2)c1 [Compound I-228]"
val = 80

[[record]]
compound = "N#Cc1ccccc1-c1nc2ccc(C(=O)NCCCn3ccnc3)cc2nc1-c1ccccc1 [Compound I-54]"
val = 50


Return reported inhibition at 1 µM; argument: Cc1nc(C)c(-c2nc3cc(C(=O)NCCCn4ccnc4)ccc3nc2-c2ccccc2)s1 [Compound I-9] 36

Bench note: what inhibition at 1 µM did COc1cc(-c2nc3cc(C(=O)NCCCc4ncc[nH]4)ccc3nc2OC(C)C)c(F)cn1 [Compound I-392] show? 91

I'd like to know its inhibition at 1 µM. The compound in question is O=C(NCCCc1ccnnc1)c1ccc2nc(N3CCCCC3)c(-c3ccc(F)cc3)nc2c1 [Compound I-103] 96

Item under review: O=C1CN(c2nc3ccc(C(=O)NCCCn4ccnc4)cc3nc2-c2ccccc2)CN1 [Compound I-7] . Reported inhibition at 1 µM? 12

Reported inhibition at 1 µM, compound O=C(NCCCc1c[nH]cn1)c1ccc2nc(-c3ccc(F)cc3)c(-c3ccc(F)cc3)nc2c1 [Compound I-192] : ____ 78

// inhibition at 1 µM lookup, key: COc1cccc(-c2nc3ccc(C(=O)NCCc4ncc[nH]4)cc3nc2-c2cccc(OC)c2)c1 [Compound I-134] 65

Fill in the blank: the reported inhibition at 1 µM of O=C(NCCCn1ccnc1)c1ccc2nc(N3CCC(O)C3)c(-c3ccccc3)nc2c1 (centres unmarked) [Compound I-90] is ____. 54

Which inhibition at 1 µM value belongs to COc1cccc(-c2nc3cc(C(=O)NCCCn4ccnc4)ccc3nc2N2CCOCC2)c1 [Compound I-55] ? 102

Quick check: inhibition at 1 µM of O=C(NCCCc1ncc[nH]1)c1ccc2nc(N3CCSCC3)c(-c3ccc(F)cc3)nc2c1 [Compound I-256] ? 97

---

Target: hNAMPT protein (Homo sapiens (Human))
Assay: NAMPT enzyme assay (TR-FRET/HTRF, BodiPY ligand, anti 6His-Tb)
Type: binding
Details: compound concentration 1 μM; read-out: Percent Inhibition
# reported inhibition at 1 µM; entries follow
Just the number please, in %, no unit attached.

These solved cases illustrate the format of a correct answer.
[[record]]
molecule = "CC1(C)CN(c2nc3ccc(C(=O)NCCCn4ccnc4)cc3nc2-c2ccccc2)CCO1 [Compound I-31]"
parameter = "inhibition at 1 µM"
val = 89

[[record]]
molecule = "COc1cccc(-c2nc3cc(C(=O)NCCc4cccnc4)ccc3nc2N2CCOCC2)c1 [Compound I-189]"
parameter = "inhibition at 1 µM"
val = 91


Would you kindly look at the next entry?
Returns the measured inhibition at 1 µM for the input molecule. Input: Cc1ccsc1-c1nc2cc(C(=O)NCCCc3ncc[nH]3)ccc2nc1-c1ccc(F)cc1 [Compound I-342] 89

---

Biological target: hNAMPT protein (Homo sapiens (Human))
Test: NAMPT enzyme assay (TR-FRET/HTRF, BodiPY ligand, anti 6His-Tb)
Assay type: binding
Details: read-out: Percent Inhibition
Consider the following molecules and their measured inhibition at 1 µM readings.
Give just the numeric value; % need not be written.

[[record]]
query_smiles = "O=C(NCc1ccc2[nH]cnc2c1)c1ccc2nc(N3CCOCC3)c(-c3ccc(F)cc3)nc2c1"
val = 56

[[record]]
query_smiles = "CC(C)(C)OC(=O)NCc1ccc(-c2nc3cc(C(=O)NCCCn4ccnc4)ccc3nc2-c2ccccc2)cc1"
val = 17


Please report the recorded inhibition at 1 µM for NCc1cccc(-c2nc3cc(C(=O)NCCCn4ccnc4)ccc3nc2-c2ccccc2)c1 . 47

Fill in: inhibition at 1 µM of O=C(NCCc1nccs1)c1ccc2nc(-c3ccc(F)cc3)c(-c3ccc(F)cc3)nc2c1 is ___ 83

Return reported inhibition at 1 µM; argument: CC(C)Oc1nc2ccc(C(=O)NCCCc3ncc[nH]3)cc2nc1-c1ccc(F)cc1 93

---

Target: hNAMPT protein (Homo sapiens (Human))
Assay: NAMPT enzyme assay (TR-FRET/HTRF, BodiPY ligand, anti 6His-Tb)
Format: binding
Conditions: NAMPT inhibition at compound concentration 1 μM; read-out: Percent Inhibition
Reported values of inhibition at 1 µM for individual entries
# output: bare number, implied unit %

Reference set (4 entries):
[[record]]
compound = "CC(C)Oc1nc2ccc(C(=O)NCc3cn4cccnc4n3)cc2nc1-c1ccc(F)cc1 [Compound I-506]"
unit_of_measure = "%"
val = 78

[[record]]
compound = "Cc1cc(C)n(-c2nc3ccc(C(=O)NCCCc4ncc[nH]4)cc3nc2-c2ccc(F)cc2)n1 [Compound I-428]"
unit_of_measure = "%"
val = 71

[[record]]
compound = "COc1ccc(C)c(-c2nc3cc(C(=O)NCCCc4ncc[nH]4)ccc3nc2-c2ccc(F)cc2)c1 [Compound I-467]"
unit_of_measure = "%"
val = 94

[[record]]
compound = "Cc1ccc(-c2nc3cc(C(=O)NCCCc4ncc[nH]4)ccc3nc2-c2ccc(F)cc2)cc1C [Compound I-433]"
unit_of_measure = "%"
val = 79


Returns the measured inhibition at 1 µM for the input compound. Input: COC1CC(Oc2nc3ccc(C(=O)NCCCc4ncc[nH]4)cc3nc2-c2ccc(F)cc2)C1 (centres unmarked) [Compound I-427] 99

---

Target: hNAMPT protein (Homo sapiens (Human), UniProt P43490)
Experiment: NAMPT enzyme assay (TR-FRET/HTRF, BodiPY ligand, anti 6His-Tb)
Assay type: binding
Conditions: NAMPT IC50 range class; read-out: IC50
pIC50: −log10 of the molar value.
parameter: pIC50

[[record]]
compound = "O=C(NCCCn1ccnc1)c1ccc2nc(N3CCC(O)C3)c(-c3ccccc3)nc2c1 (centres unmarked)"
val = "6.00 to 6.30"

[[record]]
compound = "Cc1ccc(CCCNC(=O)c2ccc3nc(N4CCCCC4)c(-c4ccc(F)cc4)nc3c2)cn1"
val = "6.00 to 6.30"

[[record]]
compound = "CC(=O)Nc1cccc(-c2nc3ccc(C(=O)NCCCn4ccnc4)cc3nc2-c2ccccc2)c1"
val = "6.30 to 7.00"

[[record]]
compound = "O=C(NCCCn1ccnc1)c1ccc2nc(CN3CCOCC3)c(-c3ccccc3)nc2c1"
val = "5.70 to 6.00"

[[record]]
compound = "Cn1cncc1CCNC(=O)c1ccc2nc(N3CCC(N4CCOCC4)CC3)c(-c3ccc(F)cc3)nc2c1"
val = "> 7.00"

[[record]]
compound = "O=C(NCCCn1ccnc1)c1ccc2nc(N3CCCCCC3)c(-c3ccccc3)nc2c1"
val = "> 7.00"


Turning to the following compound.
Test system hNAMPT protein (Homo sapiens (Human), UniProt P43490); read-out pIC50; what value for O=C(NCCCc1cn[nH]c1)c1ccc2nc(N3CCOCC3)c(-c3ccc(F)cc3)nc2c1 ? 6.30 to 7.00
